Source listed as patent US8435978B2.

Biological target: human B1R receptor (Homo sapiens, UniProt P46663)
Construct: host or cells: CHO K1 cells (Chinese hamster ovary), stably transfected
Sequence (P46663 whole entry): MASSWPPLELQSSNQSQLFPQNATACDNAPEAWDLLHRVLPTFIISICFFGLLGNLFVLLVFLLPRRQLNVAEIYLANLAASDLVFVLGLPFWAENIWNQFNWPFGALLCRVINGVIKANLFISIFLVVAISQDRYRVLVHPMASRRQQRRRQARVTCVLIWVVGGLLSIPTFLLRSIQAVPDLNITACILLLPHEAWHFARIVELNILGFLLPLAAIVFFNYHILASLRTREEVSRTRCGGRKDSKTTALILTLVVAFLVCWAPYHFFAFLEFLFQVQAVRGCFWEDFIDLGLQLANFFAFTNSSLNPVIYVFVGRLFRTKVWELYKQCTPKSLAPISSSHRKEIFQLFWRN
Assay: Functional study on the bradykinin receptor 1 (B1R), FLIPR Ca2+ assay, hB1R cells
Assay type: cell-based
Conditions: CHO-K1, test substance 10 μM, agonist Lys-Des-Arg9-bradykinin 0.5 nM, % inhibition compared with the maximum achievable inhibition, read-out: B1R Antagonism, human [10 μM] % Inhibition
Counter-ions that a name gives are not always drawn.
PARAMETER: inhibition at 10 µM (%)
Give a bare numeral; the unit % is implied.

Worked set:
- MOLECULE: "COc1cc(C)c(S(=O)(=O)N2CCCCC2COCC(=O)Nc2[nH]ncc2-c2ccc(OC)c(OC)c2)c(C)c1 (stereo not drawn) [Example 538]"
  inhibition at 10 µM, %: -11.8
- MOLECULE: "CN(C)c1ccc(C2CCCN2C(=O)COCC2CCCCN2S(=O)(=O)c2c(Cl)cccc2Cl)cc1 (stereo not drawn) [Example 528]"
  inhibition at 10 µM, %: 88.2
- MOLECULE: "CN1CCC(N2CCN(C(=O)COCC3CCCCN3S(=O)(=O)c3c(Cl)cc(C(F)(F)F)cc3Cl)CC2)CC1 (stereo not drawn) [Example 108]"
  inhibition at 10 µM, %: 102
- MOLECULE: "COc1cc(C)c(S(=O)(=O)N2CCCCC2COCC(=O)N2CCN(Cc3c(C)cc(C)cc3C)CC2)c(C)c1 (stereo not drawn) [Example 383]"
  inhibition at 10 µM, %: 40.2
- MOLECULE: "O=C(COCC1CCCN1S(=O)(=O)c1c(Cl)cc(Cl)cc1Cl)N1CCN(CCc2ccccc2)CC1 (stereo not drawn) [Example 329]"
  inhibition at 10 µM, %: 105

Please give the documented inhibition at 10 µM of CN(CCC1CCC(N(C)C)CC1)C(=O)COCC1CCc2ccccc2N1S(=O)(=O)c1ccc(Cl)c(Cl)c1 (stereo not drawn) [Example 213]
59.7

Quickly give me recorded inhibition at 10 µM for CN1CCC(N2CCN(C(=O)COCC3CCCCN3S(=O)(=O)c3cccc4cnccc34)CC2)CC1 (stereo not drawn) [Example 176, dihydrochloride]
-24.8

Consider the molecule COc1ccc(S(=O)(=O)N2CCCCC2COCC(=O)N2CCN(c3nc(CCc4ccccc4)cs3)CC2)cc1 (stereo not drawn) [Example 220] . State its measured inhibition at 10 µM.
15.3

Supply inhibition at 10 µM value. Item: Cc1cc(C)c(S(=O)(=O)N2CCCCC2COCC(=O)N2CCCC2Cc2ccccn2)c(C)c1 (stereo not drawn) [Example 226]
76.4

Fill in reported inhibition at 10 µM for this entry: COc1cc(C)c(S(=O)(=O)N2CCCC2COCC(=O)N2CCCC2Cc2ccccn2)c(C)c1 (stereo not drawn) [Example 447]
66.5

Please give the documented inhibition at 10 µM of COc1cc(C)c(S(=O)(=O)N2CCCCC2COCC(=O)Nc2ccc(CN3CCCCC3)cc2)c(C)c1 (stereo not drawn) [Example 419]
100

Assign inhibition at 10 µM to the following record: COc1cc(C)c(S(=O)(=O)N2CCCCC2COCC(=O)N2CCN(Cc3cnc(N(C)c4ccc(F)cc4)nc3)CC2)c(C)c1 (stereo not drawn) [Example 214]
101

State, in one line, measured inhibition at 10 µM of CN1CCC(N2CCN(C(=O)COC[C@@H]3Cc4ccccc4CN3S(=O)(=O)c3ccc(Cl)cc3Cl)CC2)CC1 [Example 133]
103

Output measured inhibition at 10 µM for this item: Cc1cc(C)c(S(=O)(=O)N2CCCCC2COCC(=O)N2CCCCC2Cc2ncccc2C)c(C)c1 (stereo not drawn) [Example 229]
101

Identify measured inhibition at 10 µM corresponding to COc1ccc(S(=O)(=O)N2c3ccccc3CCC2COCC(=O)N2CCN(C3CCN(C)CC3)CC2)cc1 (stereo not drawn) [Example 204]
105
